# ASSAY PROCEDURE: small-molecule microarray binders of probe aNog, primary screen, biochemical, biotinylated probe, 635/667 nm fluorescence (AID 1115);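 note: probe is biotinylated aNog protein used at 0.15 µg/mL for 1 h at 4 C; z-score combines 667 nm fluorescence of each spot with its signal to noise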
# CONDITION DETAILS: higher = more signal
composite z-score overview
// no unit string in output, number only

Example entries begin here.
# MOLECULE, composite z-score
data = [
    ("CC(C)C(=C=CC[C@H](O)c1ccc(OCCO)cc1)CCO", 0.508),
    ("O=C1C[C@]2(c3ccc([N+](=O)[O-])cc3)C(=O)N(CC(F)(F)F)c3cc(CO)ccc3[C@H]2N1C1CCCCC1", -0.495),
    ("CN1C(=O)C2C=CC(C(O)c3ccccc3)N(N(c3ccccc3)c3ccccc3)C2C1=O (configuration not stated)", 0.235),
    ("O=C(NCCO)C1=C[C@H](Oc2ccccc2I)[C@@H](O)[C@H](N(Cc2ccco2)C(=O)Cc2ccccc2)C1", 0.0129),
    ("CCCCN1CC=CC23O[C@@H]4C=CCCOC(=O)C4[C@H]2C(=O)N(CCCCCCO)[C@@H]3C1=O (some centres not stated)", -0.413),
]

# input Entry COC(=O)[C@@]1(Cc2ccccc2)[C@H]2c3cc(C(=O)N(C)C)n(Cc4ccsc4Br)c3C[C@H]2CN1C(=O)c1ccccc1 needs its composite z-score filled in; supply it.
# output 1.2

# input Entry C=CC[C@]1(C(=O)NCCCOC)N=C(c2ccc(OCCCO)cc2)O[C@H]1c1ccccc1CN=[N+]=[N-] needs its composite z-score filled in; supply it.
# output 1.53

# input Entry NC(=O)NCC#Cc1ccc2c(c1)[C@]1(C(=O)N2)[C@H](c2ccccc2OCCO)N2[C@H](c3ccccc3)[C@H](c3ccccc3)OC(=O)[C@H]2[C@@H]1C(=O)Nc1nc2ccccc2s1 needs its composite z-score filled in; supply it.
# output 0.448

# input Entry CNS(=O)(=O)c1ccc(C)cc1 needs its composite z-score filled in; supply it.
# output -0.138

# input Entry NC(=O)NCC#Cc1ccc2c(c1)[C@]1(C(=O)N2)[C@H](C(N)=O)[C@H]2C(=O)O[C@H](c3ccccc3)[C@H](c3ccccc3)N2[C@@H]1c1ccc(O)cc1 needs its composite z-score filled in; supply it.
# output 2.39

# input Entry O=C1[C@@]23C=C(Br)[C@H](C[C@@H]2CCOC3)[C@@]12CO2 needs its composite z-score filled in; supply it.
# output -0.303
